Where these numbers come from: paper PMC10786891

- assay.system: T1, EsCas13d, nuclease-dead (Eubacterium siraeum, UniProt B0MS50, R295A;H300A;R849A;H854A)
- T1 sequence: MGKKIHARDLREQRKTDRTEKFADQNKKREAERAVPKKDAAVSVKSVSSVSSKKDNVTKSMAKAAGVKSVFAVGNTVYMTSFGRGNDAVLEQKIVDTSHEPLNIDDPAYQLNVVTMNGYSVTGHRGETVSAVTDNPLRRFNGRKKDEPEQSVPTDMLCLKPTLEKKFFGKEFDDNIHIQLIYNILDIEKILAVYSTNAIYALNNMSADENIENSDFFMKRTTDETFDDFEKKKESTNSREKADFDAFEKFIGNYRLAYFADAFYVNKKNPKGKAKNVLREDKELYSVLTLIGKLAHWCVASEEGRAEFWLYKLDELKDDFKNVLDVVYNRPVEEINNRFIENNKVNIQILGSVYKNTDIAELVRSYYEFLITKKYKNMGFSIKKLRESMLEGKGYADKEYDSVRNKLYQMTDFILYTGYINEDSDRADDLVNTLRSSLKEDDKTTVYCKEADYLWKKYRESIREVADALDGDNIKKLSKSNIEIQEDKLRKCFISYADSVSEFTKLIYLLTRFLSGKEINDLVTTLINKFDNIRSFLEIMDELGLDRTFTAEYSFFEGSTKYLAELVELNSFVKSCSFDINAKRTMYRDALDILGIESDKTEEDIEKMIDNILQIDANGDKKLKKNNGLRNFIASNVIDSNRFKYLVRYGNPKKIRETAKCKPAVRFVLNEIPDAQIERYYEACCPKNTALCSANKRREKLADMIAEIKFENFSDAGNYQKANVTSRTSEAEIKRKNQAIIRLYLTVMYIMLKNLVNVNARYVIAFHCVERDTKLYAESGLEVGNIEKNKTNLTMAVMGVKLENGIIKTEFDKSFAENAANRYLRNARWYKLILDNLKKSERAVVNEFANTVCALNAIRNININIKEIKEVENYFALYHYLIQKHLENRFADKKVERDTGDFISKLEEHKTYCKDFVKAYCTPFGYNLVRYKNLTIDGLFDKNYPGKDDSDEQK
- test.description: crRNA (strand 1, pre-loaded); Mg2+; 40 mM Tris-HCl pH 7.5, 150 mM NaCl, 6 mM MgCl2, 1 mM DTT, 0.1% Tween-20, 0.2 mg/ml BSA; 25 C; 10 min per concentration, then washed
- cond: tags: His6-TwinStrep-SUMO cleaved; N-terminal SNAP kept (SNAP-Surface 488); label: 3' end held by stalled T7 RNA polymerase
recorded.metric: pKd
Answers are plain numbers, as −log10 of the molar value.

Known pKd results, listed for orientation:
binder: target 1 C4A,C22A (mixed) RNA 1: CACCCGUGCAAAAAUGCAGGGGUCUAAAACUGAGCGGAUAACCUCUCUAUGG RNA 2: GGGAAUGGAUCCACAUCUACGAAUUCGUAACAUAGAGAGGUUAUCCGAUCACCGAGAUCGGAAGAGCACACGU
reported: 8.24
--
binder: target 1 G17U,U19A (mixed) RNA 1: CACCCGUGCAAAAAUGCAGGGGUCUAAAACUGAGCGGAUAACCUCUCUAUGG RNA 2: GGGAAUGGAUCCACAUCUACGAAUUCGUACCAAAUAGAGGUUAUCCGCUCACCGAGAUCGGAAGAGCACACGU
reported: 7.43
--
binder: target 2 MT 5'PFS CGG 3'PFS AUU (mixed) RNA 1: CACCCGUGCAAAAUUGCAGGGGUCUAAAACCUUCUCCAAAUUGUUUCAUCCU RNA 2: GGGAAUGGAUCCACAUCUACGAAUUCCGGAGGAUGAAACAAUUUGGAGAAGAUUAGAUCGGAAGAGCACACGU
reported: 8.40
--
binder: target 1 MT 5'PFS UCA 3'PFS CUA (mixed) RNA 1: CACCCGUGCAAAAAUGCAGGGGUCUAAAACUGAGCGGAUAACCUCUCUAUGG RNA 2: GGGAAUGGAUCCACAUCUACGAAUUCUCACCAUAGAGAGGUUAUCCGCUCACUAAGAUCGGAAGAGCACACGU
reported: 8.02

Quick batch: pKd for everything below.
1. target 3 G3C,G4U (mixed) RNA 1: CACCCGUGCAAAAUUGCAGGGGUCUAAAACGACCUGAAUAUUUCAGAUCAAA RNA 2: GGGAAUGGAUCCACAUCUACGAAUUCGUUUUUGAUCUGAAAUAUUCAUCUCUGCAGAUCGGAAGAGCACACGU
2. target 1 U8G,G17U (mixed) RNA 1: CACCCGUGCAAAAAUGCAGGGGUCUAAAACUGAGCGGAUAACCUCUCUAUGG RNA 2: GGGAAUGGAUCCACAUCUACGAAUUCGUACCAUAUAGAGGUUAGCCGCUCACCGAGAUCGGAAGAGCACACGU
3. target 2 MT 5'PFS GAG 3'PFS AAU (mixed) RNA 1: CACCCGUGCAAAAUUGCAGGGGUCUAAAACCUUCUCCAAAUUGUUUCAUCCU RNA 2: GGGAAUGGAUCCACAUCUACGAAUUCGAGAGGAUGAAACAAUUUGGAGAAGAAUAGAUCGGAAGAGCACACGU
4. target 1 insC 3' of 14,insA 3' of 10 (mixed) RNA 1: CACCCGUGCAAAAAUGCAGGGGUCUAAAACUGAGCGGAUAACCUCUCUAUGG RNA 2: GGGAAUGGAUCCACAUCUACGAAUUCGUACCAUAGAGACGGUUAAUCCGCUCACCGAGAUCGGAAGAGCACACGU
5. target 2 MT 5'PFS GCC 3'PFS AAU (mixed) RNA 1: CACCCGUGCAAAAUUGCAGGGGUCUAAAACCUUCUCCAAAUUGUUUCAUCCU RNA 2: GGGAAUGGAUCCACAUCUACGAAUUCGCCAGGAUGAAACAAUUUGGAGAAGAAUAGAUCGGAAGAGCACACGU
6. target 1 MT 5'PFS GUG 3'PFS UCU (mixed) RNA 1: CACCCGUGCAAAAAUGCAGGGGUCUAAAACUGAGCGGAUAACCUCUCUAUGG RNA 2: GGGAAUGGAUCCACAUCUACGAAUUCGUGCCAUAGAGAGGUUAUCCGCUCAUCUAGAUCGGAAGAGCACACGU

result:
1. 7.74
2. 7.04
3. 8.25
4. 7.26
5. 7.74
6. 7.99
